Numbers sourced from paper PMC5540273.

Test system: YANK1
Construct: gene STK32A
Settings: concentration: 1 μM, replicates: in singlicate; n = 1;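 also: KINOMEscan kinase panel screen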
%Inh by entry:
Respond with the bare value in %.

Quick one: %Inh of Nc1nc(-c2ccccn2)c(-c2ccnc3ccccc23)s1 [GW548057] ?
0

Quick one: %Inh of Clc1ccc(-c2cc(-c3c[nH]nc3-c3ccccn3)ccn2)cc1 [GW681251] ?
0

Quick one: %Inh of Cn1ccc2ncnc(Nc3ccc(Oc4cccc(Cl)c4)c(Cl)c3)c21 ?
0

Quick one: %Inh of OCCOCCn1ccc2ncnc(Nc3ccc(Oc4cccc(Cl)c4)c(Cl)c3)c21 ?
0

Quick one: %Inh of COc1ccc(Nc2nccc(N3CCC(NC(=O)Nc4ccc5c(c4)OCO5)C3)n2)cc1 (centres unmarked) [GSK1379745] ?
3

###

Test system: CAMK2D
Conditions: concentration: 1 μM, replicates: in singlicate; n = 1
METRIC_NAME: %Inh (%)
Respond with the bare value in %.

>>> print(df.to_string())
                         compound_structure  metric_name  unit_symbol  experimental_value
0  Nc1nc(-c2ccc3c(N)n[nH]c3c2)cc(N2CCCCC2)n1         %Inh            %                   0
1  Fc1cccc(COc2ccc(Nc3ncnc4cc[nH]c34)cc2Cl)c1         %Inh            %                   9
2  Cc1ccc(C)c(NC(=O)NCCNc2ccnc(Nc3ccc(F)cc3)n2)c1         %Inh            %                  18

Quick one: %Inh of FC(F)(F)c1ccc(-c2cc(-c3c[nH]nc3-c3ccccn3)ccn2)cc1 ?
12

Quick one: %Inh of O=C(Nc1n[nH]c2nc(-c3ccco3)c(Br)cc12)c1ccc(CN2CCCC2)cc1.O=C(O)[C@H](O)[C@@H](O)C(=O)O ?
0

###

Test system: MAK
Details: concentration: 1 μM, replicates: in singlicate; n = 1
Classification by %Inh | ranges: class 0: < 10%; class 1: ≥ 10% and < 20%; class 2: ≥ 20%

Recorded results for 10 molecules are shown here.
>>> print(df.to_string())
                                   molecule  class_label
0  Cl.Cn1ccc(-c2cccc(Nc3ccnc4cc(-c5nccs5)ccc34)c2)n1 [GW525701]      class 0
1  NC(=O)c1sc(-n2cnc3ccccc32)cc1OCc1ccccc1F [GSK1024306]      class 1
2  CCCc1ccc(S(=O)(=O)NC2CCN(c3ccnc(Nc4ccc(OC)cc4)n3)C2)cc1 (stereo not drawn) [GSK1379737]      class 1
3  Fc1cccc(COc2ccc(Nc3ncnc4sc(-c5ccc[nH]5)cc34)cc2Cl)c1 [GW707818]      class 2
4  COC(=O)c1cccc(NC(=O)NCCNc2ccnc(Nc3ccc(F)cc3)n2)c1 [GSK1379883]      class 2
5  FC(F)(F)c1cc(Nc2nccc(-c3c(-c4ccc(Cl)cc4)nn4ncccc34)n2)ccc1Cl [GW829351]      class 0
6  CSc1nn2c(=O)cc(N3CCOCC3)nc2n1Cc1cccc(Cl)c1Cl [GSK2347225]      class 2
7   Clc1cc(Nc2ncnc3cc[nH]c23)ccc1OCc1ccccn1      class 2
8  Nc1nc(-c2ccc3c(N)n[nH]c3c2)cc(N2CCC[C@@H](C(=O)Nc3ccccc3)C2)n1.O=C(O)C(F)(F)F.O=C(O)C(F)(F)F [GSK2288359]      class 2
9  FC(F)(F)c1ccc(-c2cc(-c3c[nH]nc3-c3ccccn3)ccn2)cc1 [GW599550]      class 1

Category lookup for the molecule Clc1ccc(-c2cc(-c3c[nH]nc3-c3ccccn3)ccn2)cc1 [GW681251]
class 1

Category lookup for the molecule C[C@H]1CC[C@@H](C(=O)Nc2ccccc2)CN1c1cc(-c2ccc3c(N)n[nH]c3c2)nc(N)n1 [GSK2283293]
class 1
